# EXPERIMENTAL_TARGET: Escherichia coli DNA gyrase A/B tetramer (Escherichia coli (strain K12), UniProt P0AES4+P0AES6)
# TEST_PROTOCOL: DNA gyrase supercoiling activity fluorescence polarisation assay
# Assay type: biochemical
# EXPERIMENTAL_CONTEXT: 5 nM enzyme, relaxed plasmid, 0.3 mM ATP, ambient temperature; read-out: E. coli DNA gyrase supercoiling IC50
MEASURED_METRIC: pIC50
On this scale, pIC50 is minus log10 of a concentration expressed in M (mol/L).

Take a look at these entries with their results.
C[C@@H]1CN2c3c(cc4c(N(C)C)noc4c3F)CC3(C(=O)NC(=O)NC3=O)[C@H]2[C@H](C)O1 (relative stereo)    6.52
C[C@@H]1CN2c3c(cc4c(-n5cc(I)cn5)noc4c3F)CC3(C(=O)NC(=O)NC3=O)[C@H]2[C@H](C)O1 (racemic)    5.68

Using the record for C[C@@H]1CN2c3c(cc4c(-c5ccncc5)noc4c3Cl)CC3(C(=O)NC(=O)NC3=O)[C@H]2[C@H](C)O1 (relative stereo) , report its pIC50. 6.00

For the molecule C[C@@H]1CN2c3c(cc4c(C(=O)NC5CN(C)C5)noc4c3F)CC3(C(=O)NC(=O)NC3=O)[C@H]2[C@H](C)O1 (relative stereo) , what pIC50 is on record? 5.85

pIC50 lookup needed for C[C@@H]1CN2c3c(cc4c(-c5nccnc5Cl)noc4c3F)CC3(C(=O)NC(=O)NC3=O)[C@H]2[C@H](C)O1 (relative stereo) , thanks. 6.10

What does the data say about its pIC50? Entry: C[C@@H]1CN2c3c(cc4c(NCc5cccnc5)noc4c3F)CC3(C(=O)NC(=O)NC3=O)[C@H]2[C@H](C)O1 (relative stereo) 6.00

Which pIC50 is listed for C[C@@H]1CN2c3c(cc4c(C(=O)NCc5ccncc5)noc4c3F)CC3(C(=O)NC(=O)NC3=O)[C@H]2[C@H](C)O1 (relative stereo) ? 5.92

====

# EXPERIMENTAL_TARGET: Escherichia coli DNA gyrase A/B tetramer (Escherichia coli (strain K12), UniProt P0AES4+P0AES6)
# TEST_PROTOCOL: DNA gyrase supercoiling activity fluorescence polarisation assay
# Type: biochemical
# EXPERIMENTAL_CONTEXT: 5 nM enzyme, relaxed plasmid, 0.3 mM ATP, ambient temperature; read-out: E. coli DNA gyrase supercoiling IC50
Label Yes when IC50 is strictly below 2000 nM; at or above that, label No.

Example results:
C[C@@H]1CN2c3c(cc4c(-c5ncccn5)noc4c3F)CC3(C(=O)NC(=O)NC3=O)[C@H]2[C@H](C)O1 (relative stereo)    Yes
C[C@H]1CN2c3c(cc4c(C(F)F)noc4c3F)CC3(C(=O)NC(=O)NC3=O)[C@@H]2[C@@H](C)O1    No
C[C@@H]1CN2c3c(cc4c(-n5ccnn5)noc4c3F)CC3(C(=O)NC(=O)NC3=O)[C@H]2[C@H](C)O1 (relative stereo)    Yes
C[C@@H]1CN2c3c(nc4c(-c5ccncc5)noc4c3Cl)CC3(C(=O)NC(=O)NC3=O)[C@H]2[C@H](C)O1 (relative stereo)    Yes
C[C@@H]1CN2c3c(cc4c(-c5cnccn5)noc4c3F)CC3(C(=O)NC(=O)NC3=O)[C@H]2[C@H](C)O1 [Example 165(b)]    Yes

Would you kindly verify if IC50 of Cc1cc(C)n(-c2noc3c(F)c4c(cc23)CC2(C(=O)NC(=O)NC2=O)[C@H]2[C@H](C)O[C@H](C)CN42)n1 (relative stereo) is strictly less than 2000 nM? No
